Test system: LXRb homodimer (NR concentration 270 nM)
Assay: PBM binding z-score (relative to random genomic background probes); higher = stronger binding; sequences stand for … in GC…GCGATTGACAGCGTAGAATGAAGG
Record form. Attribute: PBM binding z-score. Fill in for each entry.
Give bare numbers.

Look at each sequence and report its PBM binding z-score.
1. TGAATGAGGTTAAAGATAAGGGAACGTGGCGTCG
2. TTACCAAGGTGTGCTGAGGTCGTTGATCCAACTC
3. AGTCAAGGTTCAGGACGAGGTAACGTAAAGCACG

-- reply
0.393
-0.354
-0.0826

-- ask Give the value of PBM binding z-score reported for the following: CGTCCAAGGTAATAGGAGGTCAGTGAAGACAGAT
-- reply -0.518
